target: Nox2 (Homo sapiens (Human), UniProt P04839); assay: Nox2 inhibition in human neutrophils, isoluminol-dependent chemiluminescence; conditions: PMA stimulated human neutrophils
Sequence (P04839 2-570, one chain of several): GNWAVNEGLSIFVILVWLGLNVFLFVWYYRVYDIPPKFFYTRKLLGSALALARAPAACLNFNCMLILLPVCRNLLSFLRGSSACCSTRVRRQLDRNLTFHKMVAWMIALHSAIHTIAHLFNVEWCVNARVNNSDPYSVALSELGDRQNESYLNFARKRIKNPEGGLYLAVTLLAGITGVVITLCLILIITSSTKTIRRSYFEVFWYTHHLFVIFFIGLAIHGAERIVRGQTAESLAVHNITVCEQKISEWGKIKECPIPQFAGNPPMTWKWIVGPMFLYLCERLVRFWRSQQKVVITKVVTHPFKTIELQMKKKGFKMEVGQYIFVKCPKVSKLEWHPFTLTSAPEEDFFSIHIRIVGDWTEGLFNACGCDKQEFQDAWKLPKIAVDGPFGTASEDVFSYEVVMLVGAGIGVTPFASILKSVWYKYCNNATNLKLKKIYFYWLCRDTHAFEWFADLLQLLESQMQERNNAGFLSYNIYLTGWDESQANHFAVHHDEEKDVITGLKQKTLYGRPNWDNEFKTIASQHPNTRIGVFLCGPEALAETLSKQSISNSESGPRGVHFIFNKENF
pIC50: −log10 of the molar value.
observable: pIC50

| molecule | measured number |
| --- | --- |
| Cc1cc(Cl)c(S(=O)(=O)NCCc2ccccc2O)c(C)c1O | 6.05 |
| Cc1c2c(=O)n(-c3ccccc3Cl)[nH]c2cc(=O)n1Cc1ccccn1 [GKT136901, reference compound] | 5.05 |
| O=S(=O)(NCCc1ccccc1O)c1c(Cl)cc(Br)cc1Cl | 5.82 |
| Cc1cc(C)c(S(=O)(=O)NCCc2ccccc2O)c(C)c1 | 6.05 |
| COc1cc(C)c(S(=O)(=O)NCCc2ccccc2O)c(C)c1 | 6.00 |
| Cc1cc(O)cc(C)c1S(=O)(=O)NCCc1ccccc1O | 6.06 |

* * *

assay: Microsomal metabolic stability, mouse; format: in vitro ADME; settings: pooled liver microsomes, pH 7.4, read-out: Metab. stab, mouse t1/2
# maps each entry to its half-life at 1 μM
observable: half-life at 1 μM (min)

| sample smiles | quantity unit | measured number |
| --- | --- | --- |
| COc1cc(C)c(S(=O)(=O)NCCc2ccccc2O)c(C)c1 | min | 1 |
| Cc1cc(Cl)c(S(=O)(=O)NCCc2ccccc2O)c(C)c1O | min | 7 |

* * *

# maps each entry to its half-life at 1 μM
experiment: Microsomal metabolic stability, mouse; format: in vitro ADME; conditions: pooled liver microsomes, pH 7.4, read-out: Metab. stab, mouse t1/2

| sample smiles | half-life at 1 μM, min |
| --- | --- |
| Cc1cc(O)cc(C)c1S(=O)(=O)NCCc1ccccc1O | 16 |
| COc1cc(C)c(S(=O)(=O)NCCc2ccccc2Cl)c(C)c1 | 2 |

* * *

# maps each entry to its pIC50
target: hNox4 (Homo sapiens (Human), UniProt Q9NPH5); test: Amplex Red assay of intact Nox4 expressing HEK293 cells; type: cell-based; details: read-out: IC50 Nox4
Sequence (Q9NPH5 whole entry): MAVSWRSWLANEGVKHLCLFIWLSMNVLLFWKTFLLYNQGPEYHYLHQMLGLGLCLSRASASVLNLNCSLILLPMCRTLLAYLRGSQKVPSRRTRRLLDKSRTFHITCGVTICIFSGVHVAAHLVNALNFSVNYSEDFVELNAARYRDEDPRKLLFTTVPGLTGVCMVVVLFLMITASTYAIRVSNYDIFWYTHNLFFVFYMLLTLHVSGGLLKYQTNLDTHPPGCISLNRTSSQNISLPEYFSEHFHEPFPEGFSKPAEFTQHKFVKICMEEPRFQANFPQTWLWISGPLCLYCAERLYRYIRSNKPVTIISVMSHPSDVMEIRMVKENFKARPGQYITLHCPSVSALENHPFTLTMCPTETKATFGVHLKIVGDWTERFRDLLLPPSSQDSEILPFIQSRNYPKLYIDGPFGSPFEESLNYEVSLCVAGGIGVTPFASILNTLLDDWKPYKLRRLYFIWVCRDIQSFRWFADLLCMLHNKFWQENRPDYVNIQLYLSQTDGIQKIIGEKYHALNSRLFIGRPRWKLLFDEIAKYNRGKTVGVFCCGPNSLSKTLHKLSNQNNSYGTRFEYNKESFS
Sequence (P13498 2-195 partner): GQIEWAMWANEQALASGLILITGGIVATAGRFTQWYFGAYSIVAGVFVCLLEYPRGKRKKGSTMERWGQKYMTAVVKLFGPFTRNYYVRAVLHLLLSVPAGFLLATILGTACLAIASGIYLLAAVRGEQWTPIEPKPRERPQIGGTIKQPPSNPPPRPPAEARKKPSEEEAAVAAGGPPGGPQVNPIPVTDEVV
pIC50: −log10 of the molar value.
observable: pIC50

| compound | measured number |
| --- | --- |
| Cc1ccccc1CCNS(=O)(=O)c1c(Cl)cc(Br)cc1Cl | 6.57 |
| O=S(=O)(NCCc1ccccc1Cl)c1c(Cl)cc(C(F)(F)F)cc1Cl | 5.80 |
| Cc1ccccc1C(F)CNS(=O)(=O)c1c(Cl)cc(Br)cc1Cl (single isomer, unassigned) [Example 35 (isomer 1)] | 5.77 |
| Cc1cc(C)c(S(=O)(=O)NCCc2ccccc2Cl)c(C)c1 | 6.57 |
| O=S(=O)(NCCc1ccccc1F)c1c(Cl)cc(C2CC2)cc1Cl | 5.96 |
| Cc1c2c(=O)n(-c3ccccc3Cl)[nH]c2cc(=O)n1Cc1ccccn1 [GKT136901, reference compound] | 5.80 |
| Cc1ccccc1CCNS(=O)(=O)c1c(C)cccc1Cl | 5.62 |
| Cc1cc(Cl)c(S(=O)(=O)NCCc2ccccc2O)c(C)c1O | 5.62 |
| Cc1cc(C)c(S(=O)(=O)NCCc2ccccc2F)c(C)c1 | 5.66 |
| Cc1cc(C)c(S(=O)(=O)NCCc2ccccc2O)c(C)c1 | 6.10 |
| Cc1ccccc1C(F)CNS(=O)(=O)c1c(Cl)cc(Br)cc1Cl (single isomer, unassigned) [Example 35 (isomer 2)] | 5.31 |
| O=S(=O)(NCCc1ccccc1Cl)c1c(Cl)cc(Br)cc1Cl | 6.05 |
| O=S(=O)(NCCc1ccccc1O)c1c(Cl)cc(Br)cc1Cl | 6.52 |
| Cc1c(C)c(S(=O)(=O)NCCc2ccccc2Cl)c(C)c2c1OC(C)(C)C2 | 5.80 |
| Cc1cc(C)c(S(=O)(=O)NCCc2ccccc2Br)c(C)c1 | 6.57 |
| O=S(=O)(NCCc1ccccc1Cl)c1c(Cl)cc(C2CC2)cc1Cl | 6.44 |
| Cc1ccccc1C(F)CNS(=O)(=O)c1c(Cl)cc(Br)cc1Cl (racemic) [Example 35] | 5.77 |
| Cc1cc(C)c(S(=O)(=O)NCCc2ccccc2C)c(C)c1 | 7.05 |

* * *

assay: Plasma protein binding, mouse; format: in vitro ADME; conditions: 10 μM in plasma, equilibrium dialysis 4 h, read-out: fu % mouse plasma protein
# maps each entry to its fraction unbound at 4 h, 10 μM

| molecule | fraction unbound at 4 h, 10 μM |
| --- | --- |
| O=S(=O)(NCCc1ccccc1O)c1c(Cl)cc(Br)cc1Cl | 0.0056 |
| Cc1ccccc1C(F)CNS(=O)(=O)c1c(Cl)cc(Br)cc1Cl (racemic) | 0.0002 |
| Cc1cc(C)c(S(=O)(=O)NCCc2ccccc2O)c(C)c1 | 0.0056 |
| Cc1cc(Cl)c(S(=O)(=O)NCCc2ccccc2O)c(C)c1O | 0.025 |
| COc1cc(C)c(S(=O)(=O)NCCc2ccccc2Cl)c(C)c1 | 0.0021 |
| Cc1ccccc1CCNS(=O)(=O)c1c(Cl)cc(Br)cc1Cl | 0.0004 |
| COc1cc(C)c(S(=O)(=O)NCCc2ccccc2O)c(C)c1 | 0.017 |
| Cc1cc(O)cc(C)c1S(=O)(=O)NCCc1ccccc1O | 0.005 |

* * *

molecular target: UniProt:Q9NPH5; assay: Amplex Red assay of intact Nox4 expressing HEK293 cells; type: cell-based; settings: read-out: IC50 on hNox4 in recombinant cells
pIC50: −log10 of the molar value.
# maps each entry to its pIC50
observable: pIC50

| sample smiles | observable | measured number |
| --- | --- | --- |
| O=S(=O)(NCCc1ccccc1Cl)c1c(Cl)cc(C2CC2)cc1Cl | pIC50 | 6.44 |
| Cc1ccccc1CCNS(=O)(=O)c1c(C)cccc1Cl | pIC50 | 5.62 |
| Cc1ccccc1CCNS(=O)(=O)c1c(Cl)cc(Br)cc1Cl | pIC50 | 6.57 |

* * *

# maps each entry to its IC50
Target: hNox4 (Homo sapiens (Human))
Assay: Amplex Red assay of intact Nox4 expressing HEK293 cells
Assay type: cell-based
Details: read-out: IC50 Nox4
Experimental: HEK293 overexpressing Nox4 (CJ Nox4) cells were purchased from Redoxis, Lund, Sweden. HEK 293 cells expressing Nox5, Nox3 (HEK TRex) and CHO cells expressing Nox1, were a kind gift from Vincent Jaque Center Medical Universitaire, Geneva, Switzerland. […] Reactive oxygen produced in whole cells or in membrane preparation of Nox1, Nox3, Nox4, Nox5 and xanthine oxidase and glucose oxidase were determined using Amplex Red as detection probe of formed H2O2. […]

| compound | IC50, nM |
| --- | --- |
| Cc1cc(O)cc(C)c1S(=O)(=O)NCCc1ccccc1O [Example 48] | 22000 |
| COc1cc(C)c(S(=O)(=O)NCCc2ccccc2O)c(C)c1 [Example 47] | 1600 |
| COc1cc(C)c(S(=O)(=O)NCCc2ccccc2Cl)c(C)c1 [Example 46] | 300 |

* * *

experiment: Determination of solubility; format: physicochemical; conditions: 10 mM potassium phosphate buffer, aqueous buffer, kinetic from dmso stock; 10 mM potassium phosphate pH 7.4, 24 h, room temperature; read-out: Kinetic solub.
# maps each entry to its solubility kinetic at 24 h
observable: solubility kinetic at 24 h (µM)

| compound | observable | sign | measured number |
| --- | --- | --- | --- |
| Cc1cc(Cl)c(S(=O)(=O)NCCc2ccccc2O)c(C)c1O | solubility kinetic at 24 h | = | 94 |
| O=S(=O)(NCCc1ccccc1O)c1c(Cl)cc(Br)cc1Cl | solubility kinetic at 24 h | = | 77 |
| COc1cc(C)c(S(=O)(=O)NCCc2ccccc2O)c(C)c1 | solubility kinetic at 24 h | > | 100 |
| Cc1cc(C)c(S(=O)(=O)NCCc2ccccc2O)c(C)c1 | solubility kinetic at 24 h | > | 100 |
| Cc1ccccc1C(F)CNS(=O)(=O)c1c(Cl)cc(Br)cc1Cl (racemic) | solubility kinetic at 24 h | = | 4.5 |
| Cc1ccccc1CCNS(=O)(=O)c1c(Cl)cc(Br)cc1Cl | solubility kinetic at 24 h | = | 0.16 |
| COc1cc(C)c(S(=O)(=O)NCCc2ccccc2Cl)c(C)c1 | solubility kinetic at 24 h | = | 16 |
| Cc1cc(O)cc(C)c1S(=O)(=O)NCCc1ccccc1O | solubility kinetic at 24 h | = | 97 |

* * *

So I've got Ki readings for hNox4 (Homo sapiens (Human), UniProt Q9NPH5), take a look.
observable: Ki (nM)

| molecule | observable | quantity unit | measured number |
| --- | --- | --- | --- |
| Cc1ccccc1CCNS(=O)(=O)c1c(Cl)cc(Br)cc1Cl [Example 17] | Ki | nM | 560 |
| O=S(=O)(NCCc1ccccc1Cl)c1c(Cl)cc(C2CC2)cc1Cl [Example 26] | Ki | nM | 2200 |
| Cc1ccccc1CCNS(=O)(=O)c1c(C)cccc1Cl [Example 11] | Ki | nM | 4400 |
